The origin of these recorded values is ChEMBL document CHEMBL1136678.

# target: UniProt:P20839
# Sequence (P20839 whole entry): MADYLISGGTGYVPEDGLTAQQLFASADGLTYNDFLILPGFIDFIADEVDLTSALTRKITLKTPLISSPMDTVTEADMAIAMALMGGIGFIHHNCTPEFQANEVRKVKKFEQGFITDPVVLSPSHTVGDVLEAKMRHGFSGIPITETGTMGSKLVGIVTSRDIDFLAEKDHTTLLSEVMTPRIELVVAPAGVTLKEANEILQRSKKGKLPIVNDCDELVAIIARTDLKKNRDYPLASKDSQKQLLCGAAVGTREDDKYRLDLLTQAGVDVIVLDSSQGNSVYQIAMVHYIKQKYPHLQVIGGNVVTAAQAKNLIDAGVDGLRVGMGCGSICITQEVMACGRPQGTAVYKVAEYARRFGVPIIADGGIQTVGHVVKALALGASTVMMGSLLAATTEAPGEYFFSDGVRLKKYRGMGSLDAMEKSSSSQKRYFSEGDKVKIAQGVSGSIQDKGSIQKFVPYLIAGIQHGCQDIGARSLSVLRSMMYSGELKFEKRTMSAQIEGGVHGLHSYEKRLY
measured_endpoint: IC50 (nM)
# output: bare number, implied unit nM

Lab note: need IC50 with UniProt:P20839 for entry `COc1cc2[nH]c(-c3csc4ccccc34)c(C=O)c2cc1-c1cnco1` , please look it up. 160

* * *

Each entry below carries its measured IC50, system: Inosine-5'-monophosphate dehydrogenase 2 (Homo sapiens, UniProt P12268).
# output: bare number, implied unit nM

COc1cc2[nH]c(-c3ccccc3)cc2cc1-c1cnco1 = 500

Please report the recorded IC50 for `COc1cc2[nH]c(-c3csc4ccccc34)c(C#N)c2cc1-c1cnco1` . 64

Please report the recorded IC50 for `COc1cc2[nH]c(-c3csc4ccccc34)cc2cc1-c1cnco1` . 500

Please report the recorded IC50 for `COc1cc2[nH]c3c(c2cc1-c1cnco1)CCCC(=O)C3` . 150

Please report the recorded IC50 for `COc1cc2[nH]c(-c3csc4ccccc34)c(C=O)c2cc1-c1cnco1` . 30
